These entries and their values trace back to ChEMBL document CHEMBL5214978.

Each entry below lists one item and its recorded GI50 value.
Test system: SF-295
Test: Anticancer activity against human SF-295 cells assessed as cell growth inhibition measured after 48 hrs by SRB assay
Assay type: functional
parameterMeasured: GI50 (nM)

| smilesRecord | parameterMeasured | uom | modifierSign | experimentalResult |
| --- | --- | --- | --- | --- |
| COc1cc(C(=O)Nc2cc3c(cc2Oc2cc(C)cc(C)c2)C(=O)N[C@@H](CC(=O)O)C(=O)N3)cc(OC)c1OC | GI50 | nM | > | 50000 |
| CCN(CC)C(=O)C[C@@H]1NC(=O)c2cc(Oc3cc(C)cc(C)c3)c(NC(=O)c3cc(OC)c(OC)c(OC)c3Cl)cc2NC1=O | GI50 | nM | = | 23 |
| COC(=O)C[C@@H]1NC(=O)c2cc(Oc3ccc4c(c3)CCC4)c(NC(=O)c3cc(OC)c(OC)c(OC)c3)cc2NC1=O | GI50 | nM | = | 990 |
| COC(=O)C[C@@H]1NC(=O)c2cc(Oc3cc(C)ccc3C)c(NC(=O)c3cc(OC)c(OC)c(OC)c3)cc2NC1=O | GI50 | nM | = | 960 |
